Provenance of the data: paper PMC12472494

Quick list: Latency to Tremor and Seizure Onset per entry.
Tested on: strychnine-induced seizures
Experiment: Strychnine-induced seizure model
Assay type: in vivo, mice
Settings: oral dose 1.0 mg/kg 60 min before strychnine 1.5 mg/kg s.c.; mean ± SD, N = 10

molecule: COc1cc2c(cc1OC)C(c1ccccc1N)NCC2 (centres unmarked)
Latency to Tremor and Seizure Onset [min]: 18.2

molecule: COc1cc(C2NCCc3cc(OC)c(OC)cc32)ccc1O (centres unmarked)
Latency to Tremor and Seizure Onset [min]: 15.4

molecule: COc1cc2c(cc1OC)C(c1cccc(OC)c1[N+](=O)[O-])NCC2 (centres unmarked)
Latency to Tremor and Seizure Onset [min]: 14.6

molecule: COc1cc2c(cc1OC)C(c1ccccc1O)NCC2 (centres unmarked)
Latency to Tremor and Seizure Onset [min]: 14.5

molecule: COc1cc(Br)c(C2NCCc3cc(OC)c(OC)cc32)cc1O (centres unmarked)
Latency to Tremor and Seizure Onset [min]: 10.2

molecule: COc1cc2c(cc1OC)C(c1cc3c(cc1Br)OCO3)NCC2 (centres unmarked)
Latency to Tremor and Seizure Onset [min]: 11.2

molecule: COc1ccc(C2NCCc3cc(OC)c(OC)cc32)cc1 (centres unmarked)
Latency to Tremor and Seizure Onset [min]: 16.5

molecule: COc1cc2c(cc1OC)C(c1ccccc1)NCC2 (centres unmarked)
Latency to Tremor and Seizure Onset [min]: 14.1
